method-notes: Pharmacokinetics following IV & SC administration
experimental-parameters: Wistar, rat, urine, iv
property-measured: dose excreted (%)

C[C@@H](O)[C@@H]1NC(=O)[C@H](CCCCN)NC(=O)[C@@H](Cc2c[nH]c3ccccc23)NC(=O)[C@H](Cc2c[nH]c3ccccc23)NC(=O)[C@H](Cc2ccccc2)NC(=O)CCCNC(=O)CCCN(CC(N)=O)C(=O)[C@H](Cc2ccccc2)NC1=O :: 10.3
